Exercise: state measured GI50 for each of the molecules provided.
Value expressed in µM; do not type the unit.

Tested on HCT116, the item CCOC(=O)Cc1csc(NC(=O)c2ccc(CNC(=O)OCc3cccs3)cc2)n1 [Example 54] showed GI50 equal to 3

Tested on HCT116, the item O=C(NCc1ccc(C(=O)N2CCN(Cc3ccc4c(c3)OCO4)CC2)cc1)OCc1nc2ccccc2s1 [Example 66] showed GI50 equal to 4.8

Tested on HCT116, the item CN(O)C(=O)c1ccc(CNC(=O)OCc2c(F)c(F)c(F)c(F)c2F)cc1 [Example 47] showed GI50 equal to 52

Tested on HCT116, the item CC(=O)N(O)C(=O)Cc1csc(NC(=O)OCc2cc(Br)cs2)n1 [Example 79] showed GI50 equal to 30
